Measured values drawn from the supplement of paper PMC6135742 for this set.

test system: jimpy (Plp1 jimpy) mouse iPSC-derived oligodendrocyte progenitor cells; assay: MBP+ mature oligodendrocyte number relative to DMSO vehicle control (SDs above negative control mean); higher = more surviving jimpy oligodendrocytes (rescue); settings: 10 µM; 3 days;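 also: 10 µM single dose with 3-day oligodendrocyte differentiation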
Structures can show the parent of a compound that is named as a salt. In all, about 2,600 compounds were measured (“MBP+ mature oligodendrocyte number relative to DMSO vehicle control”: median about -0.34, highest 2% from about 13 on). Shown is part of a subset that was picked to be rich in the highest values.

compound	boundSign	MBP+ mature oligodendrocyte number
CCC(C)(C)c1ccc(CC(C)CN2C[C@@H](C)O[C@@H](C)C2)cc1 (stereo not given in full) [Amorolfine HCl]	=	28.8
O=C1NC(=O)/C(=C\c2ccc3nccnc3c2)S1	=	-0.833
O=c1cc(-c2cccc3c2Sc2ccccc2S3)oc(N2CCOCC2)c1	=	-3.99
Nc1nc2ccc(Cl)cc2n2c(-c3ccccc3)nnc12	=	0.304
CC(Cc1ccc(O)c(O)c1)(NN)C(=O)O (stereo not drawn) [S-(-)-Carbidopa]	=	-1.01
CC1(C)CCC2=C(O1)c1ccccc1C(=O)C2=O [Beta-Lapachone]	=	-6.18
CC1(C)CCC2=C(O1)c1ccccc1C(=O)C2=O [beta-Lapachone]	<	-3.97
CCn1c(=O)c2c(nc(/C=C/c3ccc(OC)c(OC)c3)n2C)n(CC)c1=O	=	-4.18
Cc1ccc(S(=O)(=O)OCC(=O)Nc2ccc(C(=O)O)c(O)c2)cc1	=	2.29
Nc1ccc(-c2ccc3ccccc3n2)cc1 [BF-170 hydrochloride]	=	0.146

----------
system: jimpy (Plp1 jimpy) mouse iPSC-derived oligodendrocyte progenitor cells; assay: MBP+ mature oligodendrocyte number relative to DMSO vehicle control (SDs above negative control mean); higher = more surviving jimpy oligodendrocytes (rescue); conditions: 10 µM; 3 days;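 also: 10 µM single dose with 3-day oligodendrocyte differentiation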
Counter-ions that a name gives are not always drawn. Over roughly 2,600 compounds, “MBP+ mature oligodendrocyte number relative to DMSO vehicle control” has its median near -0.34; the highest 2% begin near 13. Shown is part of a subset that was picked to be rich in the highest values.
testReadout: MBP+ mature oligodendrocyte number

molecule	valueObserved
Clc1ccccc1CN1CCc2sccc2C1 [Ticlopidine HCl]	18.4
N=C(N)Nc1ccc(C(=O)Oc2ccc3cc(C(=N)N)ccc3c2)cc1 [Nafamostat Mesylate]	-3.03
C#C[C@]1(O)CC[C@H]2[C@@H]3CCc4cc(O)ccc4[C@H]3CC[C@@]21C [Ethinyl Estradiol]	0.433
COC[C@H](NC(=O)c1cnc(C)s1)C(=O)N[C@@H](COC)C(=O)N[C@@H](Cc1ccccc1)C(=O)[C@@]1(C)CO1 [Oprozomib (ONX 0912)]	-5.76
COC(=O)[C@H](c1ccccc1Cl)N1CCc2sccc2C1 [Clopidogrel]	1.42
O=C1NC(=O)C(=Cc2ccc(-c3ccc(F)cc3)o2)S1 (stereo in doubt)	0.66
NC(=O)NO [Hydroxyurea]	0.603
CC(C)c1cc(-c2ccc(F)c3ccccc23)nc(N)n1	6.85
CN1CCN(C(=O)c2cc3cc(Cl)ccc3[nH]2)CC1	1.14

----------
test system: jimpy (Plp1 jimpy) mouse iPSC-derived oligodendrocyte progenitor cells; test: MBP+ mature oligodendrocyte number relative to DMSO vehicle control (SDs above negative control mean); higher = more surviving jimpy oligodendrocytes (rescue); details: 10 µM; 3 days;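 also: 10 µM single dose with 3-day oligodendrocyte differentiation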
Counter-ions that a name gives are not always drawn. Over roughly 2,600 compounds, “MBP+ mature oligodendrocyte number relative to DMSO vehicle control” has its median near -0.34; the highest 2% begin near 13. The list comes from a sample in which the highest values are over-represented; it also holds close analogues and randomly drawn compounds.
Assign class by MBP+ mature oligodendrocyte number: not lower than -1 means Yes; lower than -1 means No.

compound	labelValue
CC(C)C[C@H](NP(=O)(O)O[C@H]1O[C@H](C)[C@@H](O)[C@H](O)[C@@H]1O)C(=O)N[C@@H](Cc1c[nH]c2ccccc12)C(=O)O [Phosphoramidon disodium]	Yes
C=CC(=O)N1CCC[C@@H](n2nc(-c3ccc(Oc4ccccc4)cc3)c3c(N)ncnc32)C1	Yes
O=C1NCC2(CCN(CCc3ccccc3)CC2)O1 [Fenspiride hydrochloride]	Yes
CC(C)(C)C(=O)C(Oc1ccc(Cl)cc1)n1ccnc1 (stereo not given)	Yes
O=C1NCN(c2ccccc2)C12CCN(CCCC(c1ccc(F)cc1)c1ccc(F)cc1)CC2	No
O=C(/C=C/c1ccccc1)NC(NC(=S)Nc1cccc2cccnc12)C(Cl)(Cl)Cl (stereo not given)	Yes
Cc1ccc(NC(=O)c2cccc(N(C)C)c2)cc1NC(=O)c1ccc(O)cc1	Yes
O=C(Nc1cccc2cccnc12)c1ccc(N2C(=O)[C@@H]3[C@H](C2=O)[C@@H]2C=C[C@H]3C2)cc1 [IWR-1-endo]	No
CC(C)(Oc1ccc(Cl)cc1)C(=O)O	Yes
CC(C)S(=O)(=O)N[C@H]1CCOC[C@@H]1c1ccc(-c2ccc(C#N)s2)cc1	No
CCOC(=O)C(C)(C)Oc1ccc(Cl)cc1 [Clofibrate]	Yes
O=C1NC(=O)c2c1c(-c1ccccc1)cc1[nH]c3ccc(O)cc3c21	No
COc1cc2c(cc1-c1c(C)noc1C)ncc1[nH]c(=O)n([C@H](C)c3ccccn3)c12	No
COc1ccc(C2(CNC(=O)c3ccc(NC(=O)c4ccco4)cc3)CCOCC2)cc1	No
